experiment: Solubility in water; assay type: physicochemical
Overview of reported solubility across a group of compounds:
metric.name: solubility

>  <structure.smiles>
O=C(O)c1ccc(CSc2ccc([N+](=O)[O-])c3nonc23)cc1

>  <metric.name>
solubility

>  <value.reported>
< 500 µM

$$$$
>  <structure.smiles>
O=C(O)c1cccc(Sc2ccc([N+](=O)[O-])c3nonc23)c1

>  <metric.name>
solubility

>  <value.reported>
≤ 1000 µM

$$$$
>  <structure.smiles>
O=C1CCN(C(=O)CCSc2ccc([N+](=O)[O-])c3nonc23)CC1

>  <metric.name>
solubility

>  <value.reported>
100 µM

$$$$
>  <structure.smiles>
O=[N+]([O-])c1ccc(Sc2ccccc2)c2nonc12

>  <metric.name>
solubility

>  <value.reported>
< 100 µM

$$$$
>  <structure.smiles>
O=C(NO)c1ccc(Sc2ccc([N+](=O)[O-])c3nonc23)cc1

>  <metric.name>
solubility

>  <value.reported>
1000 µM

$$$$

---

System: Glutathione S-transferase P (Homo sapiens, UniProt P09211) | Read-out: IC50
Sequence (P09211 whole entry): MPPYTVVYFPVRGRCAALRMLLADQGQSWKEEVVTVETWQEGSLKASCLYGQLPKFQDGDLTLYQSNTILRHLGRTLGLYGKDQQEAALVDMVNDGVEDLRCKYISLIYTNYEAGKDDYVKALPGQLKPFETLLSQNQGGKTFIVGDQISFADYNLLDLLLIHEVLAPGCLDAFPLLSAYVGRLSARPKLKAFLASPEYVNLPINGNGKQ
metric.name: IC50 (µM)

>  <compound>
COC(=O)CCSc1ccc([N+](=O)[O-])c2nonc12

>  <unit.abbrev>
µM

>  <value.reported>
1.7

$$$$
>  <compound>
O=C(O)c1ccc(CSc2ccc([N+](=O)[O-])c3nonc23)cc1

>  <unit.abbrev>
µM

>  <value.reported>
1.6

$$$$
>  <compound>
O=C(O)c1ccc(Sc2ccc([N+](=O)[O-])c3nonc23)cc1

>  <unit.abbrev>
µM

>  <value.reported>
1.7

$$$$
>  <compound>
O=C1CCN(C(=O)CCSc2ccc([N+](=O)[O-])c3nonc23)CC1

>  <unit.abbrev>
µM

>  <value.reported>
6.5

$$$$
>  <compound>
O=[N+]([O-])c1ccc(SCCCCCCCCO)c2nonc12

>  <unit.abbrev>
µM

>  <value.reported>
0.5

$$$$
>  <compound>
O=C1CCN(CCSc2ccc([N+](=O)[O-])c3nonc23)CC1

>  <unit.abbrev>
µM

>  <value.reported>
4.8

$$$$
>  <compound>
O=C(CCSc1ccc([N+](=O)[O-])c2nonc12)NCCO

>  <unit.abbrev>
µM

>  <value.reported>
6.9

$$$$
>  <compound>
O=[N+]([O-])c1ccc(SCCCc2ccccc2)c2nonc12

>  <unit.abbrev>
µM

>  <value.reported>
0.5

$$$$
>  <compound>
CN(C)CCNC(=O)c1ccc(Sc2ccc([N+](=O)[O-])c3nonc23)cc1

>  <unit.abbrev>
µM

>  <value.reported>
1

$$$$
>  <compound>
O=C(NOC1CCCCO1)c1ccc(Sc2ccc([N+](=O)[O-])c3nonc23)cc1 (stereo not drawn)

>  <unit.abbrev>
µM

>  <value.reported>
1.2

$$$$
>  <compound>
COC(=O)C(CSc1ccc([N+](=O)[O-])c2nonc12)NC(=O)OCc1ccccc1 (stereo not drawn)

>  <unit.abbrev>
µM

>  <value.reported>
0.4

$$$$
>  <compound>
CC(=O)NCCSc1ccc([N+](=O)[O-])c2nonc12

>  <unit.abbrev>
µM

>  <value.reported>
1.8

$$$$
>  <compound>
O=C(NCCO)c1ccc(Sc2ccc([N+](=O)[O-])c3nonc23)cc1

>  <unit.abbrev>
µM

>  <value.reported>
2.1

$$$$
